# target-system: T1, MutS (Escherichia coli, UniProt P23909 1-853)
# T1 sequence: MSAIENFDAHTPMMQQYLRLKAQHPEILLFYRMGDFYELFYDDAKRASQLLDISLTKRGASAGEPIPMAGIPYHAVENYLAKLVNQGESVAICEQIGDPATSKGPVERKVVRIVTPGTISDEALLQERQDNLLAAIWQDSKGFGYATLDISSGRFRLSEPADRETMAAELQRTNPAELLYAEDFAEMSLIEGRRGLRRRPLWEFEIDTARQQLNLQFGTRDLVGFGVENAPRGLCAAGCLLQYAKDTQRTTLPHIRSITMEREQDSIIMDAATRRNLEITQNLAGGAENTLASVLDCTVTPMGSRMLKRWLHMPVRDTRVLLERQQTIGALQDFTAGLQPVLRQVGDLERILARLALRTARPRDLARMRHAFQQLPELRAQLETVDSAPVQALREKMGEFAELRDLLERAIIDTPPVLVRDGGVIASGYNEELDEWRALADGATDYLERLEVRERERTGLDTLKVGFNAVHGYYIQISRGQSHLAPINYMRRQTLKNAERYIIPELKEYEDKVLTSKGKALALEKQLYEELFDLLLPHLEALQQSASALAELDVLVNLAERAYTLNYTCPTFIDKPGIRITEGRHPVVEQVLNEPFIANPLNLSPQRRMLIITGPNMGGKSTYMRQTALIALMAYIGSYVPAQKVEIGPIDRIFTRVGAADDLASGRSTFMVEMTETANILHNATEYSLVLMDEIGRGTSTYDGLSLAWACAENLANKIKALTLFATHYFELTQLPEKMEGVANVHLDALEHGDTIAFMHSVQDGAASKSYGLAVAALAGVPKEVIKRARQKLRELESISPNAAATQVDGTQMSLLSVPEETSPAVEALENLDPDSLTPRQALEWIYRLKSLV
# method-description: stopped-flow FRET kinetics
property-label: Kd (µM)
Please give a number only; it is taken to be in µM.

Given the entry 30-GT (dsDNA) DNA 1: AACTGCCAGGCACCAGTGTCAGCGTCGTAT DNA 2: ATACGACGCTGACACTGGTGCTTGGCAGTT , report its measured Kd.
0.026

All values here come from paper PMC2666446.
